assayed_system: 5-HT5A (Homo sapiens, UniProt P47898)
Sequence (P47898 whole entry, species assumed): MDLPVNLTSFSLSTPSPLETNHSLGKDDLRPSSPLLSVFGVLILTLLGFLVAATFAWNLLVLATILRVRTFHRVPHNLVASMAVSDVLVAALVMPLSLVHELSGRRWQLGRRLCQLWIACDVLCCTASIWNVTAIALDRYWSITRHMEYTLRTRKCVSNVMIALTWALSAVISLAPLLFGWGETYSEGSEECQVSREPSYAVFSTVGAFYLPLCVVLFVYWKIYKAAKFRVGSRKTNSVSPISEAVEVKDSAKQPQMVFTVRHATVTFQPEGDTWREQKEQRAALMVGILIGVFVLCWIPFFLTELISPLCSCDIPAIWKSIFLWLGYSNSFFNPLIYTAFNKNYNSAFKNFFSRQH
protocol_details: Secondary radioligand binding assay (Ki)
experimental_setup: read-out: Experimental Receptor Binding Data-Ki 5HT5A; Table 25, GPCR panel
readout_label: Ki (µM)

molecule | readout_label | experimental_value
COc1ccc2c(c1)C(=O)N(CCN1CCN(c3ccccc3OC)CC1)C2 [GFR-VII-280] | Ki | 2.15

====

assayed_system: 5-HT3 (Homo sapiens)
Sequence (P46098 24-478, species assumed): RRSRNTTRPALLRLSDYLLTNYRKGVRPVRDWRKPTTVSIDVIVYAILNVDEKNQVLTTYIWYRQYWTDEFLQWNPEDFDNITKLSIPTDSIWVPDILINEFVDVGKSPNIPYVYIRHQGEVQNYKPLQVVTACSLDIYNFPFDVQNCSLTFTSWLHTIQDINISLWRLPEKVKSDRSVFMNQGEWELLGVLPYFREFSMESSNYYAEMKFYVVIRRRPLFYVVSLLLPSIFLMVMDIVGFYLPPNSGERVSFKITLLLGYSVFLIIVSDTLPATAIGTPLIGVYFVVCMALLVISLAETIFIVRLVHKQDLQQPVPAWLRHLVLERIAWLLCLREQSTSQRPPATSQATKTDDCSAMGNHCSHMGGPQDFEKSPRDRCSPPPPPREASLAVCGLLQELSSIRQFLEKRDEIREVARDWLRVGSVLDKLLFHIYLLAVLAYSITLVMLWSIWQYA

compound | Ki (µM)
CC1Cc2ccccc2N1C(=O)CN1CCN(Cc2ccccc2)CC1 (stereo not shown) | 2.11

====

Here, each record is paired with measured 5ht1a (% inh) data.
assayed_system: 5HT1a (Homo sapiens)
Sequence (P08908 1-422): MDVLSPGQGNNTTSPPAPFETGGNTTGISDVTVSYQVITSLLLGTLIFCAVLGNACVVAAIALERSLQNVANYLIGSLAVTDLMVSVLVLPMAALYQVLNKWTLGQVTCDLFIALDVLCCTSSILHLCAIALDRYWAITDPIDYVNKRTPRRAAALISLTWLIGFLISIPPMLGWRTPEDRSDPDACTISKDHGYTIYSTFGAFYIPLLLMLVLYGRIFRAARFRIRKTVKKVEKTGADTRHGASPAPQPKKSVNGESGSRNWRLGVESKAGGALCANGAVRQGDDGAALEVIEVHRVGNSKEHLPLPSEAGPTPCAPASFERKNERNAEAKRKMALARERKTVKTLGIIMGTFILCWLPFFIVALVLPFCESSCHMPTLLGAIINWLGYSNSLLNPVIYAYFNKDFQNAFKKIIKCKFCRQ
protocol_details: Primary radioligand binding assay (NIMH PDSP); also: test concentration or dose not given here
experimental_setup: primary radiobinding assay, [3H]8-OH-DPAT
Counter-ions that a name gives are not always drawn.
readout_label: 5ht1a (% inh)

compound | assayed_system | readout_label | scale_unit | experimental_value
COc1cc2c(cc1OC)C(=O)N(CCCCN1CCN(c3ccccc3OC)CC1)C2 | 5HT1a (Homo sapiens) | 5ht1a (% inh) | % inh | 93.3
COc1ccc2c(c1)C(=O)N(CCCN1CCN(c3ccccc3OC)CC1)C2 | 5HT1a (Homo sapiens) | 5ht1a (% inh) | % inh | 92.5
COc1ccc2c(c1)C(=O)N(CCN1CCN(c3ccccc3OC)CC1)C2 [GFR-VII-280-HCl] | 5HT1a (Homo sapiens) | 5ht1a (% inh) | % inh | 92
COc1ccc2c(c1)C(=O)N(CCN1CCN(c3ccccc3OC)CC1)C2 [GFR-VII-280] | 5HT1a (Homo sapiens) | 5ht1a (% inh) | % inh | 92.4
COc1ccc2c(c1)CN(CCCN1CCN(c3ccccc3OC)CC1)C2=O | 5HT1a (Homo sapiens) | 5ht1a (% inh) | % inh | 98.3
CC1Cc2ccccc2N1C(=O)CN1CCN(Cc2ccccc2)CC1 (stereo not drawn) | 5HT1a (Homo sapiens) | 5ht1a (% inh) | % inh | 64.9

====

assayed_system: dopamine D2 (Homo sapiens, UniProt P14416)
Sequence (P14416 whole entry, species assumed): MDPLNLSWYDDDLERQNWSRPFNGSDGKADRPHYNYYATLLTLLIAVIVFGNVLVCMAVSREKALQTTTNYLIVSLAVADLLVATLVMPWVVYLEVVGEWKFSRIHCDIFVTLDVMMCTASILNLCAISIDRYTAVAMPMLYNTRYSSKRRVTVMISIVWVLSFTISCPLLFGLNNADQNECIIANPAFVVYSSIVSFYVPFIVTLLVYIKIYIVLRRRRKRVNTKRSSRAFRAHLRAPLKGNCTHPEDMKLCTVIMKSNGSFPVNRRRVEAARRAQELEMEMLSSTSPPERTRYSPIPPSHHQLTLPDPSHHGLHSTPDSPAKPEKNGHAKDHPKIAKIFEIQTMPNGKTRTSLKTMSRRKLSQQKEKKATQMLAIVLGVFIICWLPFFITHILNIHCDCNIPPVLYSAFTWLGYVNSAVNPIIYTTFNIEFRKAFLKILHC
protocol_details: Secondary radioligand binding assay (Ki)
experimental_setup: Table 22: Selectivity of Dopamine D2 over α1 Receptors; ratio of Ki
Where a name gives a salt, the structure may show the parent alone.
Here, each record is paired with measured α1D/D2 data.

compound | assayed_system | α1D/D2
COc1ccc2c(c1)C(=O)N(CCCN1CCN(c3ccccc3OC)CC1)C2 | dopamine D2 (Homo sapiens, UniProt P14416) | 0.100
COc1ccc2c(c1)CN(CCCN1CCN(c3ccccc3OC)CC1)C2=O | dopamine D2 (Homo sapiens, UniProt P14416) | 0.041
COc1ccc2c(c1)C(=O)N(CCN1CCN(c3ccccc3OC)CC1)C2 [GFR-VII-280] | dopamine D2 (Homo sapiens, UniProt P14416) | 0.008
COc1cc2c(cc1OC)C(=O)N(CCCCN1CCN(c3ccccc3OC)CC1)C2 | dopamine D2 (Homo sapiens, UniProt P14416) | 0.028
COc1ccc2c(c1)C(=O)N(CCN1CCN(c3ccccc3OC)CC1)C2 [GFR-VII-280-HCl] | dopamine D2 (Homo sapiens, UniProt P14416) | 0.003

====

assayed_system: dopamine D3 (Homo sapiens)
protocol_details: Secondary radioligand binding assay (Ki)
experimental_setup: Table 23: Selectivity of Dopamine D3 over average of α1 Receptors
Counter-ions that a name gives are not always drawn.

compound | α1/D2
COc1ccc2c(c1)C(=O)N(CCCN1CCN(c3ccccc3OC)CC1)C2 [GFR-VII-273] | 1.0
COc1ccc2c(c1)C(=O)N(CCN1CCN(c3ccccc3OC)CC1)C2 [GFR-VII-280-HCl] | 0.1
COc1cc2c(cc1OC)C(=O)N(CCCCN1CCN(c3ccccc3OC)CC1)C2 [GFR-VII-285] | 0.75
COc1ccc2c(c1)CN(CCCN1CCN(c3ccccc3OC)CC1)C2=O [GFR-VII-290] | 1.6

====

Here, each record is paired with measured pKi data.
assayed_system: dopamine D3 (Homo sapiens, UniProt P35462)
Sequence (P35462 whole entry): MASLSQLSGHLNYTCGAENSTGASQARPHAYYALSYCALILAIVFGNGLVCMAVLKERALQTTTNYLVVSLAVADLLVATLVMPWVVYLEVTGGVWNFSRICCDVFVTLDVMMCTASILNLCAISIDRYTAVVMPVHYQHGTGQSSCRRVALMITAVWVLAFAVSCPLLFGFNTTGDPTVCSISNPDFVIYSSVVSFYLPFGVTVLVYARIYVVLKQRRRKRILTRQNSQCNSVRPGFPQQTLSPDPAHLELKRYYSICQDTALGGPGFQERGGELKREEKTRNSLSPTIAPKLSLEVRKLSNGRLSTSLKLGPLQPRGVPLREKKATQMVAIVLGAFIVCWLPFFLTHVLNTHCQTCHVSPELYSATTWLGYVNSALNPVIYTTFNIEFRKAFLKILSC
protocol_details: Secondary radioligand binding assay (Ki)
pKi: −log10 of the molar value. Counter-ions that a name gives are not always drawn.
readout_label: pKi

compound | readout_label | experimental_value
COc1ccc2c(c1)C(=O)N(CCN1CCN(c3ccccc3OC)CC1)C2 [GFR-VII-280-HCl] | pKi | 6.74
COc1ccc2c(c1)C(=O)N(CCCN1CCN(c3ccccc3OC)CC1)C2 | pKi | 6.79
CC1Cc2ccccc2N1C(=O)CN1CCN(Cc2ccccc2)CC1 (stereo not drawn) | pKi | 5.49

====

assayed_system: UniProt:P08908
protocol_details: Secondary radioligand binding assay (Ki)
experimental_setup: Table 24: Selectivity of 5HT1A over average of α1 Receptors
Structures can show the parent of a compound that is named as a salt.
Here, each record is paired with measured α1/D2 data.

compound | α1/D2
COc1ccc2c(c1)C(=O)N(CCN1CCN(c3ccccc3OC)CC1)C2 [GFR-VII-280-HCl] | 5.9
COc1cc2c(cc1OC)C(=O)N(CCCCN1CCN(c3ccccc3OC)CC1)C2 [GFR-VII-285] | 0.4
COc1ccc2c(c1)C(=O)N(CCCN1CCN(c3ccccc3OC)CC1)C2 [GFR-VII-273] | 24.0
COc1ccc2c(c1)CN(CCCN1CCN(c3ccccc3OC)CC1)C2=O [GFR-VII-290] | 12.7
COc1ccc2c(c1)C(=O)N(CCN1CCN(c3ccccc3OC)CC1)C2 [GFR-VII-280] | 6.4

====

assayed_system: 5HT1a (Homo sapiens, UniProt P08908)
protocol_details: Secondary radioligand binding assay (Ki)
experimental_setup: Table 24: Selectivity of 5HT1A over α1 Receptors; ratio of Ki
Structures can show the parent of a compound that is named as a salt.
We use 4 as the dividing line for α1A/D2: on or above the line is yes (1), below is no (0).

molecule | category
COc1ccc2c(c1)C(=O)N(CCN1CCN(c3ccccc3OC)CC1)C2 [GFR-VII-280-HCl] | no (0)
COc1cc2c(cc1OC)C(=O)N(CCCCN1CCN(c3ccccc3OC)CC1)C2 [GFR-VII-285] | no (0)
COc1ccc2c(c1)C(=O)N(CCCN1CCN(c3ccccc3OC)CC1)C2 [GFR-VII-273] | yes (1)
COc1ccc2c(c1)C(=O)N(CCN1CCN(c3ccccc3OC)CC1)C2 [GFR-VII-280] | yes (1)
COc1ccc2c(c1)CN(CCCN1CCN(c3ccccc3OC)CC1)C2=O [GFR-VII-290] | no (0)

====

assayed_system: 5HT1a (Homo sapiens)
protocol_details: Secondary radioligand binding assay (Ki)
experimental_setup: read-out: Ki 5HT1A
pKi: −log10 of the molar value.

compound | pKi
COc1ccc2c(c1)C(=O)N(CCN1CCN(c3ccccc3OC)CC1)C2 [GFR-VII-280] | 8.46
COc1ccc2c(c1)CN(CCCN1CCN(c3ccccc3OC)CC1)C2=O [GFR-VII-290] | 7.72

====

assayed_system: dopamine D2 (Homo sapiens, UniProt P14416)
protocol_details: Secondary radioligand binding assay (Ki)
Structures can show the parent of a compound that is named as a salt.
readout_label: Ki (nM)

compound | experimental_value
COc1ccc2c(c1)C(=O)N(CCN1CCN(c3ccccc3OC)CC1)C2 [GFR-VII-280-HCl] | 1740
CC1Cc2ccccc2N1C(=O)CN1CCN(Cc2ccccc2)CC1 (stereo not drawn) | 2460
COc1ccc2c(c1)C(=O)N(CCCN1CCN(c3ccccc3OC)CC1)C2 | 812

====

assayed_system: 5-HT5A (Homo sapiens, UniProt P47898)
protocol_details: Secondary radioligand binding assay (Ki)
Where a name gives a salt, the structure may show the parent alone.
readout_label: Ki (nM)

compound | experimental_value
COc1ccc2c(c1)C(=O)N(CCCN1CCN(c3ccccc3OC)CC1)C2 | 2900
COc1ccc2c(c1)CN(CCCN1CCN(c3ccccc3OC)CC1)C2=O | 2470
COc1cc2c(cc1OC)C(=O)N(CCCCN1CCN(c3ccccc3OC)CC1)C2 | 2440
COc1ccc2c(c1)C(=O)N(CCN1CCN(c3ccccc3OC)CC1)C2 [GFR-VII-280-HCl] | 2490
CC1Cc2ccccc2N1C(=O)CN1CCN(Cc2ccccc2)CC1 (centres unmarked) | 6770
